System: kininases
Settings: rat, in vivo
Non-standard residues stand in square brackets, D forms with d. Residues, ends and D or L forms follow the SMILES beside them.
measure: % DESTRUCTION
Please state the number and follow it with the unit.

Hi there! I need % DESTRUCTION for each item below, if you can.
1. N=C(N)NCCC[C@H](NC(=O)[C@H](Cc1ccccc1)NC(=O)[C@@H]1CCCN1C(=O)[C@H](CO)NC(=O)[C@H](Cc1ccccc1)NC(=O)CNC(=O)[C@@H]1CCCN1C(=O)[C@@H]1CCCN1C(=O)[C@H](CCCNC(=N)N)NC(=O)[C@H](CCCCN)NC(=O)[C@@H](N)CCCCN)C(=O)O
2. NCCCC[C@H](N)C(=O)N[C@@H](CCCN=C(N)N)C(=O)N1CCC[C@H]1C(=O)N1CCC[C@H]1C(=O)NCC(=O)N[C@@H](Cc1ccccc1)C(=O)N[C@@H](CO)C(=O)N1CCC[C@H]1C(=O)N[C@@H](Cc1ccccc1)C(=O)N[C@@H](CCCN=C(N)N)C(=O)O
3. N=C(N)NCCC[C@@H](N)C(=O)N[C@@H](CCCNC(=N)N)C(=O)N1CCC[C@H]1C(=O)N1CCC[C@H]1C(=O)NCC(=O)N[C@@H](Cc1ccccc1)C(=O)N[C@@H](CO)C(=O)N1CCC[C@H]1C(=O)N[C@@H](Cc1ccccc1)C(=O)N[C@@H](CCCNC(=N)N)C(=O)O [DArg--BK] (H-[dR]RPPGFSPFR-OH)

Response:
["0%", "95%", "92%"]

Query: Bench note: what % DESTRUCTION did `N=C(N)NCCC[C@H](NC(=O)[C@H](Cc1ccccc1)NC(=O)[C@@H]1CCCN1C(=O)[C@H](CO)NC(=O)[C@H](Cc1ccccc1)NC(=O)CNC(=O)[C@@H]1CCCN1C(=O)[C@@H]1CCCN1C(=O)[C@H](CCCNC(=N)N)NC(=O)[C@H](N)CCCCN)C(=O)O` show?
Response: 89%
